tgt: phosphorylated ERBB2 (pERBB2) (Homo sapiens)
Construct: endogenous in cells
Sequence (P04626 23-1255): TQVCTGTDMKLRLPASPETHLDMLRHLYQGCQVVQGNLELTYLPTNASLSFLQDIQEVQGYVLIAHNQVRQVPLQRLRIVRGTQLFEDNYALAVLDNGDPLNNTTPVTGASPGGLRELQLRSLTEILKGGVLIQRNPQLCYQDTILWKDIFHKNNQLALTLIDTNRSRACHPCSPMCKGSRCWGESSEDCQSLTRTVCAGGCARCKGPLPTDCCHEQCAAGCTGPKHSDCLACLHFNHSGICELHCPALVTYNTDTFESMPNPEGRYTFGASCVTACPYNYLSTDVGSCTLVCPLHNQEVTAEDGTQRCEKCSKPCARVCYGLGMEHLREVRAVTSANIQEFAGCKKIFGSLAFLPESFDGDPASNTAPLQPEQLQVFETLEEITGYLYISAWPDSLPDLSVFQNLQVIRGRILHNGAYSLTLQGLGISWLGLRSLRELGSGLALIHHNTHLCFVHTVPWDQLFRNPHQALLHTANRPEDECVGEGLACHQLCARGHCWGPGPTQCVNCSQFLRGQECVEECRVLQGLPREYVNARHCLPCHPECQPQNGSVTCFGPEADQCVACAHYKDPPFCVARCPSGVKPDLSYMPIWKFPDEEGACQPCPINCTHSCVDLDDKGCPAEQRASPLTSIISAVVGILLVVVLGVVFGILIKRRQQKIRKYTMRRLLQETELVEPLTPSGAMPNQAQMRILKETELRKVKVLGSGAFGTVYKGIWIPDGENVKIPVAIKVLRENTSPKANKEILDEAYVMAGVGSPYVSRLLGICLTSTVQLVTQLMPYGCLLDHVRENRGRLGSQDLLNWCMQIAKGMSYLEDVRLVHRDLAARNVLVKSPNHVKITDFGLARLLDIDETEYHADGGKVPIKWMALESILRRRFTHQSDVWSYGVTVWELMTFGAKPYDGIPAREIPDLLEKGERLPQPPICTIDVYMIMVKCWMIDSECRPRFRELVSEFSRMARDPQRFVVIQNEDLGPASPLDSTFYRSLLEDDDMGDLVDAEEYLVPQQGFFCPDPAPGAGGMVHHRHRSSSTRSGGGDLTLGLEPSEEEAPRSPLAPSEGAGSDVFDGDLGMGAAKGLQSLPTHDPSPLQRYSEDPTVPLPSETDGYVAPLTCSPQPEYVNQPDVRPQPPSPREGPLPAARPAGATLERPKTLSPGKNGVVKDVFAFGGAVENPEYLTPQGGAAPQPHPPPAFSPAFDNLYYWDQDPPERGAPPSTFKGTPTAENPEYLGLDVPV
experimental_details: Detection of phosphorylated ERBB2 (pERBB2) by ELISA in BT-474 cells
condition_set: four hours incubation with compound, OD 450 nm
Where a name gives a salt, the structure may show the parent alone.
observable: pIC50
// scale note: pIC50 = -log10(conc_M); give the bare number

Cc1cc(Nc2ncnc3cc(OCCO)c(NC(=O)C#CC4CC4)cc23)ccc1Oc1ccn2ncnc2c1    7.77
CCOc1cc2ncnc(Nc3ccc(Oc4ccn5ncnc5c4)c(C)c3)c2cc1NC(=O)C#CCN1CCN(C)CC1 [Compound 208, triformate]    5.93
Cc1cc(Nc2ncnc3ccc(NC(=O)C#CC4CC4)cc23)ccc1Oc1ccc([C@@H](F)CF)nc1    7.11

Simply: CC#CC(=O)Nc1cc2c(Nc3ccc(Oc4ccn5ncnc5c4)c(F)c3)ncnc2cc1OCCN(C)C , phosphorylated ERBB2 (pERBB2) (Homo sapiens), pIC50 = 8.21

I looked up Cc1cc(Nc2ncnc3ccc(NC4=NC(C)(C)CO4)cc23)ccc1Oc1ccn2ncnc2c1 [Tucatinib, tucatinib, reference compound] and its pIC50 for phosphorylated ERBB2 (pERBB2) (Homo sapiens) was 7.64

Form: item CC#CC(=O)N(C)c1ccc2ncnc(Nc3ccc(Oc4ccn5ncnc5c4)cc3)c2c1 ; test system phosphorylated ERBB2 (pERBB2) (Homo sapiens); pIC50: 7.14

Entry Cc1cc(Nc2ncnc3cc(OCCN(C)C)c(NC(=O)C#CC4CC4)cc23)c(F)cc1Oc1ccn2ncnc2c1 [Compound 181, formate] , phosphorylated ERBB2 (pERBB2) (Homo sapiens) data, pIC50 value: 7.64
